Tested on: DU-145 prostate
Run description: NCI tumour cell line growth inhibition, 48 h
Readout type: TGI (µM)
Answers are plain numbers, in µM.

Observe how each entry below is paired with its result.
O=S(C(c1ccccc1)=P(c1ccccc1)(c1ccccc1)c1ccccc1)c1ccc(Cl)cc1 (stereo not given) : 42.7
Oc1ccc(Cl)cc1C1=Nn2c(COc3ccc4c(c3)CCCC4)nnc2SC1 : 40

Hi team, please reply with TGI for each item in this list.
1. CN1CCN(c2ccc(NC(=O)c3cncnc3Nc3ccc4c(ccn4Cc4cccc(F)c4)c3)cc2)CC1
2. CS(=O)(=O)Nc1ccc(NCc2cnc3ccc4[nH]cccc4c23)cc1
3. CCN(CC)CCC(CNc1c(C)cnc2cc(Cl)ccc12)c1ccc(Cl)c(Cl)c1 (stereo not given)

Ans.
[7.87, 71.3, 22]
